test system: Human immunodeficiency virus 1; experiment: Antiviral activity against wild type HIV1 3B infected in human MT4 cells assessed as reduction in virus-induced cytopathic effect after 5 days by MTT assay; format: functional, organism-based; settings: Human immunodeficiency virus 1, 3B, MT4, 120 h
Kindly state pEC50 for each of the entries shown.
Answers are plain numbers, as −log10 of the molar value.

Look over these answered cases.
>>> result("Cc1cc(C#N)cc(C)c1Oc1nc(NC2CCN(Cc3cccc(C(N)=O)c3)CC2)nc2c1COC2")
8.11
>>> result("Cc1cc(C#N)cc(C)c1Oc1nc(NC2CCN(Cc3ccc([N+](=O)[O-])cc3)CC2)nc2c1COC2")
8.13
>>> result("Cc1cc(C#N)cc(C)c1Oc1nc(NC2CCN(Cc3ccc([N+](=O)[O-])cc3)CC2)nc2c1CCCC2")
7.11
>>> result("Cc1cc(C#N)cc(C)c1Oc1nc(NC2CCN(Cc3ccc(S(C)(=O)=O)cc3)CC2)nc2c1SCC2")
8.23
>>> result("Cc1cc(C#N)cc(C)c1Oc1nc(NC2CCN(Cc3ccc(C(N)=O)cc3)CC2)nc2c1SCCC2")
8.52
>>> result("Cc1cc(C#N)cc(C)c1Oc1nc(NC2CCN(Cc3ccc(S(N)(=O)=O)cc3)CC2)nc2c1CCC2")
8.96
>>> result("Cc1cc(C#N)cc(C)c1Oc1nc(NC2CCN(Cc3ccc(C(N)=O)cc3)CC2)nc2c1COC2")
8.80
>>> result("Cc1cc(C#N)cc(C)c1Oc1nc(NC2CCN(Cc3ccncc3)CC2)nc2c1CCC2")
8.74

Fill in: Human immunodeficiency virus 1 pEC50 for `Cc1cc(C#N)cc(C)c1Oc1nc(Nc2ccc(C#N)cc2)nc(N)c1Br` = 8.29

###

test: Selectivity ratio of CC50 for human MT4 cells to EC50 for HIV1 3B infected in human MT4 cells; type: toxicity, cell-based; details: read-out: Ratio CC50/EC50
measurement-label: selectivity ratio
Answers are plain numbers.

>>> result("Cc1cc(C#N)cc(C)c1Oc1nc(NC2CCN(Cc3ccc(C(N)=O)cc3)CC2)nc2c1SCC2")
34200
>>> result("Cc1cc(C#N)cc(C)c1Oc1nc(NC2CCN(Cc3ccc([N+](=O)[O-])cc3)CC2)nc2c1CSC2")
2340
>>> result("Cc1cc(C#N)cc(C)c1Oc1nc(NC2CCN(Cc3cccc(C(N)=O)c3)CC2)nc2c1CCCC2")
24400

Please examine the following record next.
So for `Cc1cc(C#N)cc(C)c1Oc1nc(NC2CCN(Cc3ccc(S(N)(=O)=O)cc3)CC2)nc2c1CSC2` , the logged selectivity ratio turned out to be 715

###

experiment: Protein binding in human plasma at 2 uM after 5 hrs by LC/MS analysis; assay type: ADME, cell-free; details: read-out: PPB (converted)
measurement-label: fraction unbound at 5 h, 2 µM
Numbers only.

Measured fraction unbound at 5 h, 2 µM, `Cc1cc(C#N)cc(C)c1Oc1nc(NC2CCN(Cc3ccc(C(N)=O)cc3)CC2)nc2c1COC2` : 0.07

###

experiment: Cytotoxicity against human MT4 cells after 5 days by MTT assay; assay type: cell-based; details: MT4 cells
measurement-label: CC50 at 120 h (µM)
Answers are plain numbers, in µM.

Field CC50 at 120 h (entry `Cc1cc(C#N)cc(C)c1Oc1nc(NC2CCN(Cc3cccc(C(N)=O)c3)CC2)nc2c1SCCC2` ) reads 5.8

###

What log10(solubility) was measured for each of the following?
test: Aqueous solubility of the compound at pH at 7 by HPLC analysis; type: physicochemical; conditions: buffer, pH 7
Please note: log10 values; quantity solubility; unit µg/mL.

>>> result("Cc1cc(C#N)cc(C)c1Oc1nc(NC2CCN(Cc3ccc(S(N)(=O)=O)cc3)CC2)nc2ccsc12")
-1.30
>>> result("Cc1cc(C#N)cc(C)c1Oc1nc(NC2CCN(Cc3ccc(C(N)=O)cc3)CC2)nc2c1COC2")
1.12
>>> result("Cc1cc(C#N)cc(C)c1Oc1nc(NC2CCN(Cc3ccc(S(N)(=O)=O)cc3)CC2)nc2c1COC2")
1.01
>>> result("Cc1cc(C#N)cc(C)c1Oc1nc(NC2CCN(Cc3ccc(S(C)(=O)=O)cc3)CC2)nc2c1COC2")
0.14
>>> result("Cc1cc(C#N)cc(C)c1Oc1nc(NC2CCN(Cc3ccc(S(N)(=O)=O)cc3)CC2)nc2c1SCC2")
0.92

Consider the additional compound presented here.
Lookup result for `Cc1cc(C#N)cc(C)c1Oc1nc(NC2CCN(Cc3ccncc3)CC2)nc2c1COC2` ; measured log10(solubility): 1.16

###

tested on: TZM; experiment: Cytotoxicity against human TZM-bl cells after 4 days by XTT assay; type: cell-based; settings: 96 h
Exercise: state measured CC50 for each of the compounds provided.

>>> result("Cc1cc(C#N)cc(C)c1Oc1nc(NC2CC3CCC(C2)N3Cc2ccc(S(N)(=O)=O)cc2)nc2ccsc12 (centres undefined)")
"> 217 nM"
>>> result("Cc1cc(C#N)cc(C)c1Oc1nc(NC2CC3CCC(C2)N3Cc2cccc(C(N)=O)c2)nc2ccsc12 (centres undefined)")
"> 232 nM"
>>> result("Cc1cc(C#N)cc(C)c1Oc1nc(NC2CN(Cc3ccc(C(N)=O)cc3)C2)nc2ccsc12")
"> 257 nM"

# evaluate next
So, Cc1cc(C#N)cc(C)c1Oc1nc(NC2CCCN(Cc3ccc(S(N)(=O)=O)cc3)CC2)nc2ccsc12 (centres undefined) ? Its CC50 was > 222 nM

###

test system: Human immunodeficiency virus 1; assay: Antiviral activity against HIV1 harboring reverse transcriptase E138K mutant infected in human MT4 cells assessed as reduction in virus-induced cytopathic effect after 5 days by MTT assay; assay type: functional, organism-based; settings: Human immunodeficiency virus 1, MT4, 120 h
measurement-label: EC50 (nM)
Numbers only, in nM.

Look over these answered cases.
>>> result("Cc1cc(C#N)cc(C)c1Oc1nc(Nc2ccc(C#N)cc2)nc(N)c1Br")
9.7
>>> result("Cc1cc(C#N)cc(C)c1Oc1nc(NC2CCN(Cc3ccc(S(N)(=O)=O)cc3)CC2)nc2c1SCCC2")
8.5
>>> result("Cc1cc(C#N)cc(C)c1Oc1nc(NC2CCN(Cc3ccc(C(N)=O)cc3)CC2)nc2c1COC2")
7

Go through the list and state EC50 for each entry.
1. Cc1cc(C#N)cc(C)c1Oc1nc(NC2CCN(Cc3ccc(C(N)=O)cc3)CC2)nc2c1SCC2
2. Cc1cc(C#N)cc(C)c1Oc1nc(NC2CCN(Cc3ccncc3)CC2)nc2c1COC2
3. Cc1cc(C#N)cc(C)c1Oc1nc(NC2CCN(Cc3ccc(S(N)(=O)=O)cc3)CC2)nc2c1SCC2
4. Cc1cc(C#N)cc(C)c1Oc1nc(NC2CCN(Cc3ccc(S(N)(=O)=O)cc3)CC2)nc2c1CCC2
5. Cc1cc(C#N)cc(C)c1Oc1nc(NC2CCN(Cc3ccc(S(C)(=O)=O)cc3)CC2)nc2c1COC2
6. Cc1cc(C#N)cc(C)c1Oc1nc(NC2CCN(Cc3ccc(S(N)(=O)=O)cc3)CC2)nc2c1COC2

1. 15.3
2. 6.2
3. 12.8
4. 42.3
5. 7.8
6. 7.9

###

target: Cytochrome P450 2C19 (Homo sapiens); assay: Inhibition of CYP2C19 in human liver microsomes using S-mephenytoin as substrate after 10 mins in presence of NADPH; format: ADME
Sequence (P33261 whole entry): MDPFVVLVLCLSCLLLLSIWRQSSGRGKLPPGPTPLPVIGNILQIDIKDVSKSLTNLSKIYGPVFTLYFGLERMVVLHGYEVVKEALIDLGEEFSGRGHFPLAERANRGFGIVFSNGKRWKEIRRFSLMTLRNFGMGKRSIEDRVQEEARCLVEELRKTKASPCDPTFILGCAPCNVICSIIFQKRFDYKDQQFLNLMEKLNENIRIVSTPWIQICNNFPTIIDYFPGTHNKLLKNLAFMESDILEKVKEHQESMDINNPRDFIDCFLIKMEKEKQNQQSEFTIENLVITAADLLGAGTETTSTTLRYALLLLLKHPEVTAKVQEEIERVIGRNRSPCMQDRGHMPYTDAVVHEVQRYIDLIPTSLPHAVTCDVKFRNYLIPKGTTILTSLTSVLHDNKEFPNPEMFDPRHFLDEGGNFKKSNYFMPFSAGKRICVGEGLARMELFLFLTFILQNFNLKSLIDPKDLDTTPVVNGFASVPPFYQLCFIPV
pIC50: −log10 of the molar value.
measurement-label: pIC50

Bench note, Cytochrome P450 2C19 (Homo sapiens): entry `Cc1cc(C#N)cc(C)c1Oc1nc(NC2CCN(Cc3ccc(C(N)=O)cc3)CC2)nc2c1COC2` , its pIC50 = < 4.30

###

assay: Selectivity ratio of CC50 for human MT4 cells to EC50 for HIV1 harboring reverse transcriptase L100I mutant infected in human MT4 cells; assay type: toxicity, cell-based; settings: read-out: Ratio CC50/EC50
Give selectivity ratio for every item shown.

>>> result("Cc1cc(C#N)cc(C)c1Oc1nc(NC2CCN(Cc3ccc(C(N)=O)cc3)CC2)nc2c1SCC2")
9580

Hi team, please reply with selectivity ratio for each item in this list.
1. Cc1cc(C#N)cc(C)c1Oc1nc(NC2CCN(Cc3ccc(S(C)(=O)=O)cc3)CC2)nc2c1COC2
2. Cc1cc(C#N)cc(C)c1Oc1nc(NC2CCN(Cc3ccc(S(N)(=O)=O)cc3)CC2)nc2c1SCC2
3. Cc1cc(C#N)cc(C)c1Oc1nc(NC2CCN(Cc3ccncc3)CC2)nc2c1COC2
4. Cc1cc(C#N)cc(C)c1Oc1nc(NC2CCN(Cc3ccc(S(N)(=O)=O)cc3)CC2)nc2c1COC2

9050
2880
9040
8940

###

test: Selectivity ratio of CC50 for human MT4 cells to EC50 for HIV1 harboring reverse transcriptase F227L/V106A double mutant infected in human MT4 cells; assay type: toxicity, cell-based; settings: read-out: Ratio CC50/EC50
Param label: returns true (1) when selectivity ratio < 4000, returns false (0) otherwise, including exact equality.

>>> class_label("Cc1cc(C#N)cc(C)c1Oc1nc(NC2CCN(Cc3ccc(S(N)(=O)=O)cc3)CC2)nc2c1COC2")
"true (1)"

Hello, is selectivity ratio of the following molecule strictly smaller than 4000? `Cc1cc(C#N)cc(C)c1Oc1nc(NC2CCN(Cc3ccc(S(N)(=O)=O)cc3)CC2)nc2c1SCC2`
true (1)

Take the molecule `Cc1cc(C#N)cc(C)c1Oc1nc(NC2CCN(Cc3ccc(S(C)(=O)=O)cc3)CC2)nc2c1COC2` and say whether its selectivity ratio is less than 4000.
false (0)

Does `Cc1cc(C#N)cc(C)c1Oc1nc(NC2CCN(Cc3ccncc3)CC2)nc2c1COC2` have selectivity ratio strictly under 4000?
true (1)
